All values here come from the supplement of paper PMC12669032.

tested on: Coprococcus comes; assay: growth AUC relative to DMSO control (median of replicates) (fraction); higher = more growth (less inhibition), active = hit call of the paper; conditions: 20 µM; 24 h
Property label: growth AUC
// return a plain number; no unit text

Supply measured growth AUC of CC1CN(C2CCCCCCCCCCC2)CC(C)O1 (mixture of isomers) in your reply. 0.992

Supply measured growth AUC of `O.O=C(Nc1ccc(Cl)c(Cl)c1)Nc1cc(Cl)ccc1Oc1ccc(Cl)cc1S(=O)(=O)[O-].[Na+]` in your reply. 0.823

Supply measured growth AUC of `C=CCc1ccc(O)c(OC)c1` in your reply. 0.971

Supply measured growth AUC of `CC1(C)C(=O)Oc2ccc(OS(C)(=O)=O)cc21` in your reply. 0.992

Supply measured growth AUC of `Cc1nc(C(F)(F)F)c(C(=O)Nc2c(Br)cc(OC(F)(F)F)cc2Br)s1` in your reply. 1.06

Supply measured growth AUC of CS(=O)(=O)c1ccc(C(=O)C2C(=O)C(O)CC(O)C2=O)c(Cl)c1COCC(F)(F)F (stereo not drawn) in your reply. 1

Supply measured growth AUC of `CN(C)C(=O)NC1CCCCCCC1` in your reply. 1.03

Supply measured growth AUC of `COC(=O)[C@@H](C)Oc1ccc(Oc2ncc(C(F)(F)F)cc2Cl)cc1` in your reply. 1.02

Supply measured growth AUC of `COc1nc(OC)nc(C(=O)c2cccc(F)c2N(C)S(=O)(=O)C(F)F)n1` in your reply. 1.03

Supply measured growth AUC of `Cc1c(C(=O)c2c[nH]n(C)c2=O)ccc(S(C)(=O)=O)c1C1=NOCC1` in your reply. 1.02

Supply measured growth AUC of CC(C)(NC(=O)C(Br)C(C)(C)C)c1ccccc1 (stereo not drawn) in your reply. 0.959

Supply measured growth AUC of `COC(=O)Nc1ccc(Cl)c(Cl)c1` in your reply. 0.987

Supply measured growth AUC of `COC(=O)c1csc(C)c1S(=O)(=O)NC(=O)n1nc(OC)n(C)c1=O` in your reply. 1.01

Supply measured growth AUC of `CCOC(=O)[C@@H](C)Oc1ccc(Oc2cnc3cc(Cl)ccc3n2)cc1` in your reply. 0.983

Supply measured growth AUC of `CN(C)C(=O)SCCCCOc1ccccc1` in your reply. 0.968

Supply measured growth AUC of CCCCC(CC)CN1C(=O)C2C(C1=O)[C@H]1C=C[C@@H]2C1 (mixture of isomers) in your reply. 1.03

Supply measured growth AUC of CCc1cccc(C)c1N(C(=O)C(=O)O)C(C)COC (stereo not drawn) in your reply. 1.02

Supply measured growth AUC of `O=C(O)CCCc1c[nH]c2ccccc12` in your reply. 1.01

Supply measured growth AUC of `CCCCCCCC(=O)Oc1c(Br)cc(C#N)cc1Br` in your reply. 1.01

Supply measured growth AUC of `CCCCCCCC/C=C\CCCCCCCC(N)=O` in your reply. 0.869

Supply measured growth AUC of `CP(=O)(O)CCC(=O)O` in your reply. 0.993

Supply measured growth AUC of `CCc1nc2ncnn2c(N)c1CCCCCC(=O)O.Cl` in your reply. 1.03

Supply measured growth AUC of `c1cc2ccc3ccc4ccc5cccc6c(c1)c2c3c4c56` in your reply. 1.01
